Target: Wild type full length LIGHT on HEK293FF cells (alanine scanning control) (UniProt O43557)
Assay: flow cytometry, HEK293FF, mAb at EC50
parameter_measured: % of WT binding (%)
Please reply with the bare figure in % and do not write the unit itself.

Lookup: Give its % of WT binding value. Item: 3C10 chimeric IgG4 mAb (antibody, V domains shown) VH: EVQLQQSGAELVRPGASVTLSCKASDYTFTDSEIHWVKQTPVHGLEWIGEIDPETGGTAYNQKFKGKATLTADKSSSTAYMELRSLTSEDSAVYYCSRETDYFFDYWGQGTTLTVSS VL: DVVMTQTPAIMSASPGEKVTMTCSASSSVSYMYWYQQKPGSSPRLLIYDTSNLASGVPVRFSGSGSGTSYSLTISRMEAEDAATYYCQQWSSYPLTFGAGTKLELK
Found: 100

Lookup: Give its % of WT binding value. Item: 3D12 chimeric IgG4 mAb (antibody, V domains shown) VH: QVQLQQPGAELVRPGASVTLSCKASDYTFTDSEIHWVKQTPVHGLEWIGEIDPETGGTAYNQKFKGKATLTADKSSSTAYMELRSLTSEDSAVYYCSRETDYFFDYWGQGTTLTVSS VL: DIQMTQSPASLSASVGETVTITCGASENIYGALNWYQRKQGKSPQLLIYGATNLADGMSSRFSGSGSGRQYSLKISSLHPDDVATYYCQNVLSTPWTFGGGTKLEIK
Found: 100

Lookup: Give its % of WT binding value. Item: 2E08 chimeric IgG4 mAb (antibody, V domains shown) VH: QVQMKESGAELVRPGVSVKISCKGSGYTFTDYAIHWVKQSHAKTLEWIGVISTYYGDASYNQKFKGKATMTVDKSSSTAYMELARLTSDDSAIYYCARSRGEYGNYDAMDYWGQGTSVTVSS VL: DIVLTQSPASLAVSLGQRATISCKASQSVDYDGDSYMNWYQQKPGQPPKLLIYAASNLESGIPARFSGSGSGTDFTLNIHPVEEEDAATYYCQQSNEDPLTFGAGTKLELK
Found: 100
